// half-life lookup, one value per entry
Test Method Notes: In vivo circulation of labeled RBCs and lipid retention, flow cytometry, BALB/c mice
Conditions Used: both sexes, mouse, whole blood (RBCs), iv; BALB/c, mono- or biexponential decay, summary value; read-out: MFI half life, estimated (extrapolated) terminal (converted)
Measurement Name: half-life (days)

[[record]]
compound = "CCCCCCCCCCCCCCCCCCN1/C(=C/C=C/C2=[N+](CCCCCCCCCCCCCCCCCC)c3ccccc3C2(C)C)C(C)(C)c2ccccc21 [DiI-C18]"
measurement_name = "half-life"
inequality_operator = ">"
value = 80

[[record]]
compound = "CCCCCCCCCCCCN1/C(=C/C=C/C2=[N+](CCCCCCCCCCCC)c3ccccc3C2(C)C)C(C)(C)c2ccccc21 [DiI-C12]"
measurement_name = "half-life"
inequality_operator = "="
value = 3

[[record]]
compound = "CC(C)CCCC(C)C1CCC2C3CC=C4CC(OC(=O)CCCCC[N+]5=C(C=CC=C6N(C)c7ccccc7C6(C)C)C(C)(C)c6ccccc65)CCC4(C)C3CCC12C (stereo not drawn) [Cy3-cholesterol]"
measurement_name = "half-life"
inequality_operator = "="
value = 12.5

